Recorded relative integration efficiency (log2) for the following sequences
Test system: VchCAST RNA-guided transposition machinery (E. coli BL21(DE3) host, lacZ target)
Experiment: relative integration efficiency (T-RL orientation) vs wild-type transposon end (log2 (normalized fold change)); transposon end mutated: right end (5 bp flank + 75 bp right end); higher = more efficient transposition
Answer with a bare number; do not write a unit.

Worked examples follow.
SEQUENCE INPUT	relative integration efficiency (log2)
ACATTTGTTGATACAACCATAAAATGATAATTACACCCATAAATTGATAATTATCACACCCATAAATTGATATTGCAGCTGATCATAGTCAGACCAACATTGCTACGACCCGTATTCGCACCGACAC	0.131
ACATTTGTTGATACAACCATAAGTTGATATTTTCAACCATATATTGATATCTCTCACAACCATAAGTTGATATTTTCTCTGATCATAGTCAGACCAACATTGCTACGACCCGTATTCGCACCGACAC	-0.118
ACATTTGTTGATACAACCATAAAATGATAATTACACCCATAAATTGATAATTATCACACCCATAAATTGATATTGCCTCTGATCATAGTCAAACTGTATTTATATACAGTTGGACCAGCACCGACAC	0.00825
ACATTTGTTGATACAACCATAAAATGATAATTACCACCATAAATTGATAATTATCACACCCATAAATTGATATTGCCTCTGATCATAGTCAGACCAACATTGCTACGACCCGTATTCGCACCGACAC	0.0622

Here's the next entry for you.
Request: Identify relative integration efficiency (log2) associated with the sequence ACATTTGTTGATACAACCATAAAGTGATATTTACAACCATATATTGATATCTCTCACAACCATATATTGATATCTCCTCTGATCATAGTCAGACCAACATTGCTACGACCCGTATTCGCACCGACAC
Result: -0.415

====

Test system: VchCAST RNA-guided transposition machinery (E. coli BL21(DE3) host, lacZ target)
Test: relative integration efficiency (T-LR orientation) vs wild-type transposon end (log2 (normalized fold change)); transposon end mutated: right end (5 bp flank + 75 bp right end); higher = more efficient transposition
ENDPOINT LABEL: relative integration efficiency (log2)
Answer with a bare number; do not write a unit.

Worked examples follow.
SEQUENCE INPUT	relative integration efficiency (log2)
ACATTTGTTGATACAACCATAAAATGATAATTACAACCATAAAATGATAATTATCAGTGGGTATTTAACTATAACGCTCTGATCATAGTCAGACCAACATTGCTACGACCCGTATTCGCACCGACAC	2.54
ACATTTGTTGATACAACCATAAAATGATAATTAATAATTATTTCACCCATAAATTGATAATTATCACACCCATAAATTGATATTGCCTCTGATCATAGTCAGACCAACATTGCTACGACCCGTATTC	-2.62
ACATTTGTTGATACAACCATAAGTTGATATTTTCACCCATAAATTGATATTGCTCACACCCATAAATTGATATTGCCTCTGATCATAGTCAGACCAACATTGCTACGACCCGTATTCGCACCGACAC	0.258
ACATTTGTTGATACAACCATAAAATGATATAATCACCCATAAATTGATATAATTCACACCCATAAATTGATAAACGCTCTGATCATAGTCAGACCAACATTGCTACGACCCGTATTCGCACCGACAC	0.045
ACATTTGTGGATACAACCATAAAATGATAATTCACCCATCAATTGATAATTATCACACCCCAATTTAACTATAACGCTCTGATCATAGTCAGACCAACATTGCTACGACCCGTATTCGCACCGACAC	0.328
ACATTTGTTGATACAACCATAAAATCATTATTACACCCATTAATTGATAATTATCACACCCAATTTAACTATAACGCTCTGATCATAGTCAGACCAACATTGCTACGACCCGTATTCGCACCGACAC	0.129
ACATTTGTTGATACAACCATAAAATGATAATTACACCCATAAATTGATAATTATCACACCCATAAATTGATATTGCCTCTGTACCGTTCGTATAATGTATGCTATACCAAGTTATTCGCACCGACAC	-0.0326
ACATTTGTTGATACAACCATCAAATGATAATTCCACCCATAAATTGATAATTATCACACCCAATTTAACTATAACGCTCTGATCATAGTCAGACCAACATTGCTACGACCCGTATTCGCACCGACAC	1.44
ACATTTGTTGATACAACCATTAAATGATAATTCCACCCATAAATTGATAATTATCACACCCAATTTAACTATAACGCTCTGATCATAGTCAGACCAACATTGCTACGACCCGTATTCGCACCGACAC	2.34

Here's the next entry for you.
Request: Identify relative integration efficiency (log2) associated with the sequence ACATTTGTTGATAGTTGGTATTTTACTATTAATGTGGGTATTTAACTATTAATTCACACCCATAAATTGATATTGCCTCTGATCATAGTCAGACCAACATTGCTACGACCCGTATTCGCACCGACAC
Result: -3.49

====

Test system: VchCAST RNA-guided transposition machinery (E. coli BL21(DE3) host, lacZ target)
Test: relative integration efficiency (T-LR orientation) vs wild-type transposon end (log2 (normalized fold change)); transposon end mutated: right end (5 bp flank + 75 bp right end); higher = more efficient transposition
Recorded relative integration efficiency (log2) for the following sequences
Answer with a bare number; do not write a unit.

SEQUENCE INPUT	relative integration efficiency (log2)
ACATTTGTTGATACAACCATAAAATGATAATTAATAATTATTTATAATCAGCACACCCATAAATTGATAATTATCAACAAACGCCCGGTCGCGGTACTCTGATCATAGTCAGACCAACATTGCTACG	0.238
ACATTTGTTGATACAACCATAAAATGATAATTACACCCATAAATTGATAATTATCACACCCATACCGGTCGCGGTAAGAGGATCATAGTCAGACCAACATTGCTACGACCCGTATTCGCACCGACAC	2.44
ACATTTGTTGATACAACCATAAAATCATAATTACCCCCATAAATTGATAATTATCACACCCAATTTAACTATAACGCTCTGATCATAGTCAGACCAACATTGCTACGACCCGTATTCGCACCGACAC	0.699
ACATTTGTTGATACAACCATAAAATGATCATTACACCCATAAATTGATCATTATCACACCCATAAATTGATCTTGCCTCTGATCATAGTCAGACCAACATTGCTACGACCCGTATTCGCACCGACAC	-0.741
ACATTTGTTGATACAACCATAAAATGATAATTAATAATTATTCACCCATAAATTGATAATTATCACACCCATAAATTGATATTGCCTCTGATCATAGTCAGACCAACATTGCTACGACCCGTATTCG	-1.92

Request: Identify relative integration efficiency (log2) associated with the sequence ACATTTGTTGATACAACCATAAAATGATAATTACTCTGATCATAGTCAGACCAACATTCACCCATAAATTGATAATTATCAGTGGGTATTTAACTATAACGGCTACGACCCGTATTCGCACCGACAC
Result: -0.137

Request: Identify relative integration efficiency (log2) associated with the sequence ACATTTGTTGATACAACCATAAAATGATAATTACACCCATAAATTGATAATTATCACACCCATAAATTGATATTGCCTCTGATCATAGTCAGACCAACCATAAAATGATAATTACAAGCACCGACAC
Result: -0.0296

====

Tested on: VchCAST RNA-guided transposition machinery (E. coli BL21(DE3) host, lacZ target)
Test: relative integration efficiency (T-RL orientation) vs wild-type transposon end (log2 (normalized fold change)); transposon end mutated: right end (5 bp flank + 75 bp right end); higher = more efficient transposition
# binarize relative integration efficiency (log2): threshold -2 inclusive, high side yes, low side no

SEQUENCE INPUT	ANSWER LABEL
ACATTTGTTGATACAACCATAAAATCTATATTACACCCATAAATTGATAATTATCACACCCATAAATTGATATTGCCTCTGATCATAGTCAGACCAACATTGCTACGACCCGTATTCGCACCGACAC	yes

Request: State whether the measured relative integration efficiency (log2) reaches -2, counting equality as reaching it, for ACATTTGTTGATACACCCATAAATTGATATTGCCACCCATAAATTGATATTGCTCAGTGGGTATTTAACTATAACGCTCTGATCATAGTCAGACCAACATTGCTACGACCCGTATTCGCACCGACAC
Result: yes

Request: State whether the measured relative integration efficiency (log2) reaches -2, counting equality as reaching it, for ACATTTGTTGATACAACCATAAAATGATAATTACACCCATAAATTGATAATTATCCCACCCCATTTAACTATAACGCTCTGATCATAGTCAGACCAACATTGCTACGACCCGTATTCGCACCGACAC
Result: yes

Request: State whether the measured relative integration efficiency (log2) reaches -2, counting equality as reaching it, for ACATTTGTTGATACAACCATTAAATGTTAATTCCACCCATAAATTGATAATTATCACACCCAATTTAACTATAACGCTCTGATCATAGTCAGACCAACATTGCTACGACCCGTATTCGCACCGACAC
Result: yes

Request: State whether the measured relative integration efficiency (log2) reaches -2, counting equality as reaching it, for ACATTTGTTGATACAACCATAAAGTGATATTTACACCCATAAATTGATAATTATCACAACCATAAAATGATAATTACTCTGATCATAGTCAGACCAACATTGCTACGACCCGTATTCGCACCGACAC
Result: yes
